All figures here come from PubChem BioAssay.

- assay.overview: Restrictive medium S. cerevisiae growth inhibition, OD615, pilot screen of yeast lifespan reduction project, restrictive growth control (AID 706);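 note: modified DeaD lifespan yeast strain shifted to restrictive glucose medium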
- condition.notes: OD615, 48 h, at 10 µM, stronger effect = higher value
Provide the reported growth inhibition of each item.
State the answer as a number, implicitly in %.

IN: Could you tell me which growth inhibition is on file for CCCC1(C(=O)O)NC(c2ccccc2O)C2C(=O)N(Cc3ccccc3)C(=O)C21 (stereo unspecified) ?
OUT: 6.84

IN: // same read-out, input: "Cc1nc(CNS(=O)(=O)c2ccccc2F)cs1"
OUT: 0.715

IN: // same read-out, input: "Cc1ccc(S(=O)(=O)N2CCN(C(=O)CSc3nnc(C)s3)C2)cc1"
OUT: -10.7

IN: // same read-out, input: COc1cccc(-c2nc(CS(=O)CC(=O)O)c(C)o2)c1 (stereo unspecified)
OUT: 2.52

IN: // same read-out, input: CC1CCCCC1NC(=O)C1CCN(C(=O)c2sccc2-n2cccc2)CC1 (stereo unspecified)
OUT: -6.6

IN: // same read-out, input: "O=C(Nc1ccccc1)N(CCCN1CCOCC1)Cc1cccs1"
OUT: 9.1

IN: // same read-out, input: "CCOC(=O)N1CCN(C(=O)CNS(=O)(=O)c2cccs2)CC1"
OUT: 1.46

IN: // same read-out, input: COc1ccc(NC(=O)C(c2ccccc2)N(C)C(=O)c2cnccn2)cc1 (stereo unspecified)
OUT: -12.6

IN: // same read-out, input: CCCC(NS(=O)(=O)c1ccc(Br)cc1)C(=O)O (stereo unspecified)
OUT: -0.42

IN: // same read-out, input: "O=c1[nH]c2ccc(S(=O)(=O)N3CCN(c4ccccc4F)CC3)cc2s1"
OUT: -7.76

IN: // same read-out, input: "CCOc1ccc2nc(N3CCC(C(=O)Nc4nnc(CC)s4)CC3)sc2c1"
OUT: -21.7

IN: // same read-out, input: CCN1C(=O)c2ccccc2S(=O)c2ccc(C(=O)N3CCCC3)cc21 (stereo unspecified)
OUT: 3.54

IN: // same read-out, input: COc1cc2c(cc1OC)C(C(=O)Nc1cccc(C)n1)C(c1cccnc1)N(C)C2=O (stereo unspecified)
OUT: -5.33

IN: // same read-out, input: CCN(CC)CCN1C(=O)C2C3c4ccccc4C(c4ccccc43)C2C1=O (stereo unspecified)
OUT: -2.01

IN: // same read-out, input: CCOc1ccc(C2CC(c3ccc(OC)c(OC)c3)n3nc(N)nc3N2)cc1 (stereo unspecified)
OUT: 5.4

IN: // same read-out, input: "CCc1ccc(NC(=O)CSc2nnc(Cc3cccn3C)n2-c2ccc(F)cc2)cc1"
OUT: 12.9

IN: // same read-out, input: "CC(C)Sc1nc(O)c(Cc2ccccc2)c(=O)[nH]1"
OUT: -0.8

IN: // same read-out, input: "COc1ccc(-c2cn3c(C)c(C(=O)N4CCN(c5ccc(OC)cc5)CC4)sc3n2)cc1"
OUT: -9.94

IN: // same read-out, input: "Cc1ccc(-n2ncc3c(=O)[nH]c(SCC(=O)N4CCCCC4)nc32)cc1"
OUT: 2.2

IN: // same read-out, input: CCOC(=O)C(C)Sc1nnc(Cc2cc(=O)[nH]c(=O)[nH]2)n1-c1ccc(OCC)cc1 (stereo unspecified)
OUT: -6.84

IN: // same read-out, input: CN1C(=O)C(O)(CC(=O)c2cccnc2)c2ccccc21 (stereo unspecified)
OUT: -7.81

IN: // same read-out, input: "CC(=O)N1CCC(Nc2ccc(C)cc2)CC1"
OUT: -9.18

IN: // same read-out, input: "O=C(CCn1c(=O)sc2ccccc21)NCCN1CCOCC1"
OUT: -14.8

IN: // same read-out, input: "Cc1sc2ncnc(Sc3nnc4sc5ccccc5n34)c2c1C"
OUT: -2.07

IN: // same read-out, input: "COc1ccc(C(=O)c2cnc(C(C)C)n2C)cc1"
OUT: -9.59

IN: // same read-out, input: "COc1cc(C)c(C)cc1S(=O)(=O)N1CCN(Cc2ccccc2)CC1"
OUT: -12.5

----------
- assay.overview: inhibitors of the yeast RAM network, pilot screen, dse1pr::URA3 reporter, 5-FOA selection (AID 869);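 note: 0% = DMSO wells with no growth and 100% = 10 µM 1-NA-PP1 with full growth; RAM network block rescues cells from 5-FOA so hits raise OD615 growth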
- condition.notes: S. cerevisiae dse1pr::URA3 5-FOA growth, OD615, 2 d; at 10 µM; stronger effect = higher value; strain carries analog-sensitive mutant Cbk1 kinase
I would appreciate it if you labelled entries Fulfilled when inhibition is 1% or higher, otherwise Not fulfilled.

IN: Quick check, inhibition >= 1%? O=C(Nc1ccc(Cl)cc1)C1CC2CCCC(C1)C2=O (stereo not given)
OUT: Not fulfilled

IN: // same read-out, input: FC(F)(F)C12CC(c3ccccc3)=NCCN1CCN2 (stereo not given)
OUT: Fulfilled

IN: // same read-out, input: "C=CCn1cc(C(=O)NCCCOC)c(=O)c2cc(S(=O)(=O)N3CCC(C)CC3)ccc21"
OUT: Fulfilled

IN: // same read-out, input: CC(C)CCNC(=O)C1C2C=CC3(CN(Cc4ccccc4Cl)C(=O)C13)O2 (stereo not given)
OUT: Not fulfilled

IN: // same read-out, input: "CCOc1ccc2nc3ccc4[nH]onc4c3c2c1"
OUT: Fulfilled

----------
- assay.overview: 384-well plate pilot, post-Golgi transport modulator project, inhibition of yeast transport mutant growth (AID 636)
- condition.notes: absorbance 615 nm, about 18 h, stronger effect = higher value
property.name: inhibition (%)
State the answer as a number, implicitly in %.

IN: Could you tell me which inhibition is on file for "C=CCNS(=O)(=O)c1ccc2nsnc2c1" ?
OUT: 0.27

IN: // same read-out, input: "CC1(C)Cc2noc(N)c2C(C)(C)N1OC(=O)c1ccccc1"
OUT: 0

IN: // same read-out, input: CC(C)(C)OC(=O)NC(CCNC=C1C(=O)OC(C)(C)OC1=O)C(=O)O (stereo not drawn)
OUT: -7.03

----------
- assay.overview: OD615 S. cerevisiae growth inhibition, permissive medium, pilot counter-assay, permissive growth control for S. cerevisiae lifespan shortening project (AID 705)
- condition.notes: OD615, 24 h, at 10 µM, stronger effect = higher value
I would appreciate it if you labelled entries fulfilled when growth inhibition is -10% or higher, otherwise not fulfilled.

IN: Quick check, growth inhibition >= -10%? O=C(NCc1ccc2c(c1)OCO2)C1CCC(CNc2c(N3CCCC3)c(=O)c2=O)CC1 (configuration not stated)
OUT: fulfilled

IN: // same read-out, input: COc1cc2c(cc1OC)C(C(=O)Nc1cccc(C)n1)C(c1cccnc1)N(C)C2=O (configuration not stated)
OUT: fulfilled

IN: // same read-out, input: "CCOC(=O)N1CCC(NC(=O)c2cc3c(C)nc4ccccc4c3o2)CC1"
OUT: not fulfilled

IN: // same read-out, input: "Cc1ccc(C(=O)NCCCn2ccnc2)o1"
OUT: fulfilled

IN: // same read-out, input: "C=CCNC(=O)c1ccc2c(c1)nnn2C"
OUT: not fulfilled

IN: // same read-out, input: "CN1CCc2c(sc3nc(SCC(N)=O)n(-c4ccccc4)c(=O)c23)C1"
OUT: not fulfilled

IN: // same read-out, input: CCC(NC(=O)c1ccccc1NC(=O)c1ccco1)C(=O)NC1CCCCC1 (configuration not stated)
OUT: fulfilled

IN: // same read-out, input: "O=C(NCc1ccc2c(c1)OCO2)c1cnc2n(c1=O)CCS2"
OUT: fulfilled

IN: // same read-out, input: "Cc1cccc(C)c1NC(=O)CSc1nnc([C@@H]2CCCN2C(=O)OC(C)(C)C)o1"
OUT: not fulfilled

IN: // same read-out, input: "CCc1ccccc1S(=O)(=O)Cc1ccc(C(=O)NCc2ccc3c(c2)OCO3)o1"
OUT: not fulfilled

IN: // same read-out, input: "COc1ccc(-c2nnc(NC(=O)c3ccccc3C)o2)cc1"
OUT: fulfilled

IN: // same read-out, input: "O=C(CSc1nc(-c2ccccc2)c(-c2ccccc2)o1)N1CCOCC1"
OUT: fulfilled

IN: // same read-out, input: "COC(=O)CSc1ccc2nnc(-c3ccc(OC)c(OC)c3)n2n1"
OUT: not fulfilled

IN: // same read-out, input: "CCn1cc(C(=O)NCCCOC)c2cc(OC)c(OC)cc2c1=O"
OUT: not fulfilled

IN: // same read-out, input: COc1ccc(-c2cc3ccccc3n2CC(O)CN2CCN(CCO)CC2)cc1 (configuration not stated)
OUT: fulfilled

IN: // same read-out, input: "Cc1ccc(N(CC(=O)NCc2ccco2)S(=O)(=O)c2ccccc2)cc1"
OUT: not fulfilled

IN: // same read-out, input: "O=C(N1CCOCC1)N1CCN(c2ccccc2F)CC1"
OUT: fulfilled

IN: // same read-out, input: "O=S(=O)(NCCc1csc(-c2cccnc2)n1)c1ccc(Cl)s1"
OUT: not fulfilled

IN: // same read-out, input: "Cn1cccc1Cc1nnc(SCC(=O)NC2CCCCC2)n1CCc1ccccc1"
OUT: fulfilled

IN: // same read-out, input: "Cc1cc(C)n2nc(S(=O)(=O)NCCc3ccccc3)nc2n1"
OUT: fulfilled

IN: // same read-out, input: "Cc1cc(-c2nnc(-c3cc4ccccc4oc3=O)o2)c(C)n1-c1ccccc1"
OUT: fulfilled

IN: // same read-out, input: "CCOc1nonc1C(=N)/C(C(C)=O)=C(\C)O"
OUT: not fulfilled

IN: // same read-out, input: "CCOc1ccc(-c2noc(CCC(=O)O)n2)cc1"
OUT: fulfilled

IN: // same read-out, input: COc1cccc(C2NC(=O)NC(C)=C2C(=O)Nc2cc(OC)ccc2OC)c1 (configuration not stated)
OUT: fulfilled

IN: // same read-out, input: "CN1CCN(CCCNC(=O)c2cc3c(=O)n(C)c4ccccc4c3s2)CC1"
OUT: fulfilled

IN: // same read-out, input: CC1=C(C(=O)OC(C)C)C(c2ccc(Br)s2)NC(=O)N1C (configuration not stated)
OUT: not fulfilled

IN: // same read-out, input: O=C(Cn1nc(Cc2cccnc2)c2ccccc2c1=O)NCC1COc2ccccc2O1 (configuration not stated)
OUT: fulfilled

IN: // same read-out, input: O=C(O)c1ccc(N2C(=O)CC(Cc3ccccc3)C2=O)cc1 (configuration not stated)
OUT: fulfilled

IN: // same read-out, input: "Cc1ccc(CNC(=O)c2cc3c(-c4ccc(Cl)cc4)nn(C)c3s2)o1"
OUT: fulfilled

IN: // same read-out, input: "COCCNS(=O)(=O)c1ccc2c(c1)C(=O)c1cc(S(=O)(=O)NCCOC)ccc1-2"
OUT: fulfilled

IN: // same read-out, input: "CN(C)S(=O)(=O)c1ccc(S(=O)(=O)N2CCN(CCC#N)CC2)cc1"
OUT: fulfilled

IN: // same read-out, input: "CCn1nc(C(=O)NC2=NCCS2)c2ccccc2c1=O"
OUT: fulfilled
